biological target: BRM (Homo sapiens, UniProt P51531); test: ATPase catalytic activity assay (ADP-Glo), BRM; details: 30 nM BRM, 400 μM ATP
Sequence (P51531 whole entry): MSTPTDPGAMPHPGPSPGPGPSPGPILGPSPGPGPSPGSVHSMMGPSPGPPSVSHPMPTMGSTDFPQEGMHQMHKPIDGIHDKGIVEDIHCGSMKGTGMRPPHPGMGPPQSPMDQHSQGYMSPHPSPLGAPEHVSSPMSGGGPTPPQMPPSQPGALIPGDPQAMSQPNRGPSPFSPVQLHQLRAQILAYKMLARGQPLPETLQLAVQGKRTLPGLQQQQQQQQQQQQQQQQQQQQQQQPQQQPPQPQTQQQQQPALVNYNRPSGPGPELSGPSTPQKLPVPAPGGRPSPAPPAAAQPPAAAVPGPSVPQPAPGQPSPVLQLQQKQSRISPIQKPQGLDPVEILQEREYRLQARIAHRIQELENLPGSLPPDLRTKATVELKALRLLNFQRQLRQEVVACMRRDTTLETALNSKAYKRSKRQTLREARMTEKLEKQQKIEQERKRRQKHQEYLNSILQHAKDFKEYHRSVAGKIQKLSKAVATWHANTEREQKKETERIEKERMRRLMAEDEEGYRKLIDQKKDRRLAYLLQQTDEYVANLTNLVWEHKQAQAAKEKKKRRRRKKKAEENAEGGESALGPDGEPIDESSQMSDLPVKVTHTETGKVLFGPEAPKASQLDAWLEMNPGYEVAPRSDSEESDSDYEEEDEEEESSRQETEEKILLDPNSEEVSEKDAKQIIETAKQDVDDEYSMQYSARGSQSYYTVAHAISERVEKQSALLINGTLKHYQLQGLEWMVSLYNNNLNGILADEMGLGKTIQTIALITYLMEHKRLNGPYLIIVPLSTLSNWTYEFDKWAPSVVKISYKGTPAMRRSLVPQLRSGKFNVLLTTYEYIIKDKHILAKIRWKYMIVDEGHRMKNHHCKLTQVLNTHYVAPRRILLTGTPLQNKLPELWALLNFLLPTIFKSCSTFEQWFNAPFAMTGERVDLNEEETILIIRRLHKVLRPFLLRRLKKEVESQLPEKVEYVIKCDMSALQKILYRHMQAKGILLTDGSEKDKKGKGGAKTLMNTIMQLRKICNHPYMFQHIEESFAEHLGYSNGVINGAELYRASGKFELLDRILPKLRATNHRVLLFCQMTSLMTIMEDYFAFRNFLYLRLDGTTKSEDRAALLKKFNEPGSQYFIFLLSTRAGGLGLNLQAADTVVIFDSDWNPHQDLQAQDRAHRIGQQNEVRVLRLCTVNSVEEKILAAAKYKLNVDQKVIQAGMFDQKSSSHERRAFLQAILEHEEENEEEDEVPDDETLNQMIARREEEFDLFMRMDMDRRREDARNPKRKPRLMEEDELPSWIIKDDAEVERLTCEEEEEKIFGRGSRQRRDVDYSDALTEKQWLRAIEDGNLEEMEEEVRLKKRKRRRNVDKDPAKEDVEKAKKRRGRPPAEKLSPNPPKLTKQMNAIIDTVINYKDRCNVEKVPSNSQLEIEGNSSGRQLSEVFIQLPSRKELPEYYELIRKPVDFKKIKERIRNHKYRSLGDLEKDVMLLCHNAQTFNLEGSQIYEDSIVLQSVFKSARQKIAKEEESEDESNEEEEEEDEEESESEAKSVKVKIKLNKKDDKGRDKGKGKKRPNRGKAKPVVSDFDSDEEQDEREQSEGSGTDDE
So I've got a bunch of compounds here, and I need their BRM Max % Inhibition values.
Numbers only, in %.

Example cases with answers are listed next.
# compound, testTarget, testValue
measured = [
    ("CN(C)c1nccc(-c2ccc3cnc(CNC(=O)c4ccc5c(c4)[C@](C)(C#N)COC5)cc3n2)n1", "BRM (Homo sapiens, UniProt P51531)", 99),
    ("Cc1cc2c(-c3ccc4cnc(CNC(=O)c5ccc6c(c5)[C@](C)(C#N)COC6)cc4n3)ccc(F)c2n1C", "BRM (Homo sapiens, UniProt P51531)", 100),
    ("C[C@@]1(F)COCc2c(F)cc(C(=O)NCc3cc4nc(-c5ccccc5)ccc4cn3)cc21", "BRM (Homo sapiens, UniProt P51531)", 97),
]

Give one value of BRM Max % Inhibition per listed compound.
1. C[C@@]1(C#N)COCc2ccc(C(=O)NCc3cc(C4CCN(c5ccccc5)C4)ccn3)cc21 (stereo partly drawn)
2. C[C@@]1(C#N)COCc2ccc(C(=O)NCc3cc4nc(-c5cnc6cccnn56)ccc4cn3)cc21

### Response
1. 90
2. 100

Give one value of BRM Max % Inhibition per listed compound.
1. Cn1cccc(-c2ccc3cnc(CNC(=O)c4ccc5c(c4)[C@](C)(C#N)COC5)cc3n2)c1=O
2. CC1c2cc(CNC(=O)c3ccc4c(c3)[C@](C)(C#N)COC4)ncc2CCN1c1cncc(C2CC2)n1 (stereo partly drawn)
3. C[C@@]1(C#N)COCc2ccc(C(=O)NCc3cc4nc(-c5cc(F)cc(F)c5)ccc4cn3)cc21
4. COc1cccc([C@H]2C[C@@H](c3ccnc(CNC(=O)c4ccc5c(c4)[C@](C)(C#N)COC5)c3)C2)c1

### Response
[89, 89, 96, 89]

Give one value of BRM Max % Inhibition per listed compound.
1. CC(=O)N(C)c1cccc(-c2ccc3cnc(CNC(=O)c4ccc5c(c4)[C@](C)(C#N)COC5)cc3n2)n1
2. C[C@@]1(C#N)COCc2ccc(C(=O)NCc3cc4nc(-c5cn(C6COC6)nc5C(F)F)ccc4cn3)cc21
3. C[C@@]1(C#N)COCc2ncc(C(=O)NCc3cc4nc(-c5cccc(C(F)F)c5)ccc4cn3)cc21
4. C[C@@]1(F)COCc2ccc(C(=O)NCc3cc4nc(-c5cncc(N6CCC6)n5)ccc4cn3)cc21
5. C[C@@]1(C#N)COCc2ccc(C(=O)NCc3cc4nc(-c5cnn(C6COC6)c5)ccc4cn3)cc21
6. COCCN1CCN(c2cccc(-c3ccc4cnc(CNC(=O)c5ccc6c(c5)[C@](C)(C#N)COC6)cc4n3)n2)CC1

### Response
74
94
95
97
87
97

---

target: BRG-1 (Homo sapiens, UniProt P51532); assay: ATPase catalytic activity assay (ADP-Glo), BRG-1; settings: 1 h, read-out: BRG1 Max % Inhibition, ADP-Glo, 30 nM BRG-1, 400 μM ATP
Sequence (P51532 whole entry): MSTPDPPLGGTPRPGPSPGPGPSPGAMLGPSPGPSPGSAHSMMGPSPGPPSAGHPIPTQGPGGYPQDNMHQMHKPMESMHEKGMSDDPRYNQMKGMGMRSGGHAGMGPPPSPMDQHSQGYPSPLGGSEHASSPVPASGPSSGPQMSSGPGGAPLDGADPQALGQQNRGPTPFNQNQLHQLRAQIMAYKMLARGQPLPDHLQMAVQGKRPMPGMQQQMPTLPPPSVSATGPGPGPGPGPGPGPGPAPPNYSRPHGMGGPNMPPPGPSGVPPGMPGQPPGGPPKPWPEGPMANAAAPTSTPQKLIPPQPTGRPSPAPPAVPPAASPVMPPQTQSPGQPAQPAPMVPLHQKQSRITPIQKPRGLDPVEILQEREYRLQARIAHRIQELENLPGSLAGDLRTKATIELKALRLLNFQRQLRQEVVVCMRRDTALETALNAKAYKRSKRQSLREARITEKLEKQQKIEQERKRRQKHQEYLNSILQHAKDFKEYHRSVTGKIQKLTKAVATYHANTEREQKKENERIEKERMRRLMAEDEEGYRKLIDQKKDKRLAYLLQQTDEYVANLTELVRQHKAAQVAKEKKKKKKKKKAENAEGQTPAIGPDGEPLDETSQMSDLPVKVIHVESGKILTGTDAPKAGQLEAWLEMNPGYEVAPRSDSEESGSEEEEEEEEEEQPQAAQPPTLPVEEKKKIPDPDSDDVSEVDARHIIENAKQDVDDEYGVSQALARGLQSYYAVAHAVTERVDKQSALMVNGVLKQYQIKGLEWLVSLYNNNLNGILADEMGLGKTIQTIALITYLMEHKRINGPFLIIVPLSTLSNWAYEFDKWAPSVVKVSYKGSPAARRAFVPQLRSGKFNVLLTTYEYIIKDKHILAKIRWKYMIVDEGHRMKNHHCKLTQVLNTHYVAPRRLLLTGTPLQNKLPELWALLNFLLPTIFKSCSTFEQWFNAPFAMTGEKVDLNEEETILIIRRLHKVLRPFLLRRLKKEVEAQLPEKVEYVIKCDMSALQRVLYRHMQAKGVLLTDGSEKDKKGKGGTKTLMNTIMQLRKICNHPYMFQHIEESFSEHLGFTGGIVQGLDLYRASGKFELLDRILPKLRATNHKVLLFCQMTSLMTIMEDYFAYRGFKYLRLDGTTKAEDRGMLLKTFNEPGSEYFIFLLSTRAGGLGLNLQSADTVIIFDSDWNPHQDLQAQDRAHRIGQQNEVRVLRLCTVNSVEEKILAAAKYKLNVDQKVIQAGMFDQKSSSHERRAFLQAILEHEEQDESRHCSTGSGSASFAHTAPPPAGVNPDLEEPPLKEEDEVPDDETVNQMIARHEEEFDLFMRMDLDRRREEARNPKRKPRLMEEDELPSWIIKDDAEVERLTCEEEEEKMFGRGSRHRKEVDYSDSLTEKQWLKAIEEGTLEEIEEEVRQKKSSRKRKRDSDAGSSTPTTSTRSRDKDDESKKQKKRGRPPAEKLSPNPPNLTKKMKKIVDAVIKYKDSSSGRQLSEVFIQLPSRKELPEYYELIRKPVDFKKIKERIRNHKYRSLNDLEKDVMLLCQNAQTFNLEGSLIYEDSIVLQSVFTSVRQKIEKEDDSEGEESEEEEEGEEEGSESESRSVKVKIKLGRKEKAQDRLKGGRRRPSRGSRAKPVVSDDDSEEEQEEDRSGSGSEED
So I've got a bunch of compounds here, and I need their Emax values.
One number for each entry, in %.

# compound, testValue
measured = [
    ("C[C@@]1(C#N)COCc2ccc(C(=O)NCc3cc4nc(-c5ccccc5)cnc4cn3)cc21", 82),
]

Give one value of Emax per listed compound.
1. CC1c2cc(CNC(=O)c3ccc4c(c3)[C@](C)(C#N)COC4)ncc2CCN1c1cncc(C2CC2)n1 (stereo partly drawn)
2. C[C@@]1(C#N)COCc2ccc(C(=O)NCc3cc4nc(-c5ccnc(N6CC7CC6C7)n5)ccc4cn3)cc21
3. COCCOCCC(=O)N1CCN(c2cccc(-c3ccc4cnc(CNC(=O)c5ccc6c(c5)[C@](C)(C#N)COC6)cc4n3)n2)CC1

### Response
51
92
96

Cited source: patent US12441726B2
